A collection of molecules and their measured melting point

O=c1ncnc2cc3[nH][nH]cc3cc12; 330 °C
CCCCCCCCCCCCCCCCCCOc1cc(OCCCOc2ccc(S(C)(=O)=O)cc2)cc(C(=O)O)c1; 110 to 111 °C

The recorded melting point for entry `O=[N+]([O-])c1cc(Cl)ccc1/C=C/c1ccc(Cl)cc1[N+](=O)[O-]` equals 247 to 248 °C

The recorded melting point for entry `O=c1[nH]c2ccccc2n1-c1ccc(Cl)cc1Cl` equals 213 to 216 °C

The recorded melting point for entry `COc1ccc(NC(=O)c2ccccc2OC)cc1` equals 49.5 to 51.2 °C

The recorded melting point for entry `COc1cc(OC)nc(Oc2cccnc2C(=O)O)n1` equals 120 to 121 °C

* * *

observation-type: melting point

Example entries and their recorded answers appear below.
CC(=O)NCCNc1ccc(NCCNC(C)=O)c2c1C(=O)c1c(O)ccc(O)c1C2=O; 273 to 274 °C
Cc1cccc(Cn2c(NC3CCN(CCc4c(C)nc5ccccn5c4=O)CC3)nc3cccnc32)n1; 233 °C
CCNc1c(SC(F)(F)F)c(C)nn1-c1c(Cl)cc(C(F)(F)F)cc1Cl; 53 to 54 °C

The recorded melting point for entry `CCCCCC(=O)c1c(O)oc(=O)c(C(=O)CCCCC)c1O` equals 87 to 88 °C

The recorded melting point for entry CC(C)(C)C(NC(=O)c1ccc(Br)cc1)NC(=NC#N)Nc1cccnc1 (centres undefined) equals 180 to 181 °C

The recorded melting point for entry COc1ccc(S(=O)(=O)N2C(=O)C(c3ccccc3OC)(N3Cc4ccccc4C[C@H]3C(=O)N(C)C)c3cc(Cl)c(Cl)cc32)c(OC)c1 (some centres undefined) equals 155 °C

The recorded melting point for entry `CCOC(=NC(=O)c1ccc(OC)cc1)N1Cc2ccccc2-c2ccccc2C1` equals 71 to 78 °C

The recorded melting point for entry `CC(C)c1[nH]n(-c2c(Cl)cccc2Cl)c2nc(Cc3ccc(CC(=O)NCCN(C)C)cc3)nc(=O)c1-2` equals 170 to 172 °C

The recorded melting point for entry `CNC(=O)c1c(I)c(NC(C)=O)c(I)c(C(=O)NCCC(=O)O)c1I` equals 190 °C

* * *

observation-type: melting point (°C)
Note: unit °C is implicit; provide only the numeric part.

Oc1cccc(C2CCCN2Cc2ccncc2)c1 (stereo not given); 138

The recorded melting point for entry `CS(=O)(=O)C(=C1CN(C(c2ccccc2)c2ccccc2)C1)c1ccccc1Cl` equals 204

* * *

A collection of molecules and their measured melting point

Example entries and their recorded answers appear below.
COc1ccc(-c2sc3c(c2C)c(=O)c(C(C)=O)cn3Cc2ccccc2F)cc1; 215 to 216 °C
COc1ccccc1CNc1ccc2cc(Nc3nc4cc(C)ccc4o3)ccc2n1; 220 °C
C[C@@H](C(N)=O)c1ccc(NS(=O)(=O)c2ccc(C(F)(F)F)cc2)cc1; 178 to 180 °C
Cc1ccc(OC(=CC(=O)c2ccc(Br)cc2)C(=O)c2ccc(Br)cc2)cc1; 137 to 138 °C

The recorded melting point for entry `Cc1ccc(-c2c(C(=O)NCc3cc(C(F)(F)F)cc(C(F)(F)F)c3)n(CCO)c(=O)c3ncccc23)cc1` equals 123 to 125 °C

The recorded melting point for entry `Cc1ccsc1C(=O)Cc1ccc(C(F)(F)F)cc1[N+](=O)[O-]` equals 120 to 122 °C

The recorded melting point for entry CCCCNc1cc(C(=O)O)cc(S(C)=O)c1Cl (stereo unspecified) equals 158 °C

The recorded melting point for entry `CCOC(=O)c1cnc2c(F)cc(I)cc2c1O` equals 287 to 289 °C

The recorded melting point for entry `Nc1nc2ccc(S(=O)(=O)n3c(CCC(=O)O)cc4nc(Cl)ccc43)cc2s1` equals > 260 °C

The recorded melting point for entry `CCOC(=O)c1cc2c(Cl)c(F)ccc2[nH]1` equals 180 to 182 °C

The recorded melting point for entry `C#CCOc1cc(Oc2c(F)cccc2F)ncn1` equals 67.2 °C

The recorded melting point for entry `CC(C)(C)c1cc(SCCSCC(=O)O)cc(C(C)(C)C)c1O` equals 86 °C

The recorded melting point for entry `CCCc1nc(C)cn1-c1nc(OC)ccc1[N+](=O)[O-]` equals 96 to 103 °C

The recorded melting point for entry `CC(C)(C)OC(=O)N1CC(=O)Nc2ccccc21` equals 143 to 144 °C

The recorded melting point for entry `CCOC(=O)c1cccc(-c2ccc(-c3ccc(C(F)(F)F)cc3)o2)c1` equals 93 to 94 °C

The recorded melting point for entry `CON1CCC2(CC1)SC(=O)C(c1c(C)cc(C)cc1C)=C2O` equals 67 to 71 °C

The recorded melting point for entry Cc1cc(NC23N=CN=C2C=NC(N2CCC(C)CC2)=N3)[nH]n1 (stereo unspecified) equals > 300 °C

The recorded melting point for entry `CCOC(=O)c1ccc(OCC(=O)O)cc1` equals 129 to 130 °C

The recorded melting point for entry O=C(CC(CCCc1ccccc1)C(=O)O)c1ccc2c3c(oc2c1)CCCC3 (stereo unspecified) equals 142 to 144 °C

The recorded melting point for entry `Cn1cc(-c2ccc(C(=O)N3Cc4cccn4Cc4ccccc43)cn2)cn1` equals 173 to 175 °C

The recorded melting point for entry `N#Cc1cc(Cn2cncn2)cc(-c2ccc(F)cc2)c1` equals 134 to 135 °C

* * *

A collection of molecules and their measured melting point

CCc1cn(C2CC(O)C(CCC(O)Cc3c(Cl)cccc3Cl)O2)c(=O)[nH]c1=O (mixture of isomers); 185 to 186 °C

Consider now this further molecule.
The recorded melting point for entry `COc1ccc(C2(O)CCN(c3ccc(OC)nc3-c3ccc(OC(F)(F)F)cc3)CC2)cc1` equals 100 to 112 °C

* * *

observation-type: melting point

COc1ccc(-c2nn(CC3CC3)c(=O)cc2-c2ccncc2)cc1; 128 to 130 °C
Cc1ncc([N+](=O)[O-])n1CCN1C(=O)C2CC=CCC2C1=O (stereo not given); 118 to 123 °C
CN1Cc2cncn2-c2cccc(Cl)c2C1=O; 200 to 201 °C
COc1ccc(C(=O)COc2ccc(C(=O)OCc3ccccc3)c(O)c2)cc1C(C)(C)C; 98 to 99 °C
CCN(CC)CC(=O)OC1CC2(C)C(C(C)=O)CCC2C2CCC3CC(O)C=CC3(C)C12 (stereo not given); 134 to 138 °C

The recorded melting point for entry `CCCCSc1cc2nc3ccccc3sc-2cc1=O` equals 133 °C

The recorded melting point for entry COc1ccccc1C1(Cl)C(=O)Nc2cc(C)c(Cl)cc21 (stereo not given) equals 254 to 256 °C

The recorded melting point for entry `N#CCCN1CCOC(c2ccccc2)(c2ccccc2)CC1` equals 106 to 107 °C

* * *

A collection of compounds and their measured melting point

Example entries and their recorded answers appear below.
CCCCCCCCCCCCCCCCOc1cc(C(=O)OCC)cc(C(=O)OCC)c1; 45 °C
Oc1c(F)cc(Cn2cnnc2S)cc1F; 184 to 185 °C

The recorded melting point for entry `COC(=O)c1ccc(-c2nnc(-c3ccc(C(C)C)cc3)s2)cc1` equals 147 to 151 °C

* * *

observation-type: melting point

Example entries and their recorded answers appear below.
CCN1CC[C@H](NC(=O)c2cc(Cl)c(N)c3c2OCCC3)[C@H](OC)C1 (relative stereo); 154 °C
CC1(C2CCCC2)Cc2cc(OCCBr)c(Cl)c(Cl)c2C1=O (centres undefined); 124 to 125 °C
COC(=O)C1=C(CF)NC(C)=C(C(=O)OC(C)C)C1c1ccccc1C(F)(F)F (centres undefined); 71 to 72 °C
CCCCCS(=O)(=O)NC(=O)/C=C/c1ccc(OCCOC2CC2)cc1Oc1ncc(C(F)(F)F)cc1Cl; 105 to 106 °C
CCN(CC)S(=O)(=O)c1cc(C(=O)CCl)ccc1Cl; 63 to 65 °C

The recorded melting point for entry `COc1ccc(CC(=O)N[C@@H](C)CO)cc1OC` equals 122 to 125 °C

The recorded melting point for entry `O=C(O)C(=NO)C(c1ccc(OCc2ccc3ccc(Cl)cc3n2)cc1)c1ccc(OCc2ccc3ccc(Cl)cc3n2)cc1` equals 201 to 202 °C

The recorded melting point for entry `Cc1cc2c(-c3cccc(C=O)c3)c(CC(=O)Nc3ccc(Cl)cc3C(F)(F)F)c(=O)oc2cc1Cl` equals 232 to 233 °C

The recorded melting point for entry `N#CCC1(C#N)CCC(=O)CC1` equals 154 to 155 °C

* * *

A collection of molecules and their measured melting point

C=CCOc1ccc(-c2c(OC(C)C)cccc2C(=O)O)c(OC)c1; 101 to 103 °C

The recorded melting point for entry Cc1c(C)c(N(C)C(=O)CC(C)(C)C)c(C)c2c1OCC2c1ccc(C(C)C)cc1 (stereo not given) equals 80 to 82 °C

The recorded melting point for entry `C=C(C)C(=O)OCCCCOC(=O)/C=C/c1ccc(OC(=O)OCC)cc1` equals 54 to 56 °C

The recorded melting point for entry `CC(=O)C=Cc1ccc(O)cc1` equals 104 to 105 °C

The recorded melting point for entry CC1(C)SCNC1C(=O)O (stereo not given) equals 209 to 210 °C

The recorded melting point for entry `CC(C)OC(=O)N1CCC(c2ccc3nc(-c4ccc(S(C)(=O)=O)cc4F)oc3c2)CC1` equals 170 to 174 °C

The recorded melting point for entry CC(C(=O)O)c1ccc2c(-c3ccc(F)cc3)noc2c1 (stereo not given) equals 151 to 154 °C

The recorded melting point for entry Cc1ccc(S(=O)(=O)N2CCCC2c2cccc(F)c2)cc1 (racemic) equals 116 °C

The recorded melting point for entry CCC(N)CCCCCCCCC(C)(C)C(=O)O (stereo not given) equals 164 to 165 °C

The recorded melting point for entry Cc1ccccc1C(Oc1cc(OCc2ccsc2)ccc1C#N)C(=O)O (racemic) equals 146 to 148 °C

Hello, the source for this data is a melting point compilation (Tetko et al.; mined from patent text by program, amines drawn as free bases though some values may be those of a salt), in case you need it.
